Test method notes: AP1 Signaling Pathway (AID 357);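 also: ME-180 reporter cells stimulated with EGF at its EC50 level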
Test context: ME-180 (cervical carcinoma) AP-1-bla reporter, EGF-induced, beta-lactamase ratio, 5 h; at 7.69 µM (top of the series) unless noted
Inconclusive results are not listed. Activity calls are given as the source filed them. Calls follow the shape of the dose curve; as a rule, active = well fitted curve in either direction with a large enough effect (not every such curve was filed as active); inconclusive = small, poorly fitted or top-dose-only effect, or another doubt; inactive = flat fitted curve, though single readings scatter.
Lab note: assign the record to one of active, inactive

Observe how each entry below is paired with its result.
chemical_structure=Clc1ccccc1-c1nc(NCCN2CCOCC2)c2ccccc2n1 class=inactive
chemical_structure=Cc1cnc(CNc2nc(-c3ccccc3C)nc3ccccc23)cn1 class=inactive
chemical_structure=COc1ncc2nc(C)c(=O)n(-c3ccccc3)c2n1 class=inactive
chemical_structure=O=c1c(-c2cc(F)cc(F)c2)nc2cncnc2n1Cc1ccccc1Cl class=inactive
chemical_structure=O=S(=O)(c1ccccc1)N1CCC2(CCCN(c3ccncc3)C2)CC1 class=inactive
chemical_structure=CCNc1ncc2nc(-c3cc(F)cc(F)c3)c(=O)n(CCc3ccccc3)c2n1 class=active
chemical_structure=COCCn1c(=O)c(-c2cccs2)nc2cnc(N3CCOCC3)nc21 class=inactive
chemical_structure=N#Cc1ccc(CN2CCC3(CC2)CCN(C(=O)c2csnn2)CC3)cc1 class=inactive

Prompt line: Per the assay record, what outcome was assigned to "O=C(Nc1ccccc1)N1CCC2(CC1)CCN(C(=O)c1cccc(F)c1)CC2" ?
Response line: inactive

Prompt line: Test call, this compound: "N#Cc1cccc(NC(=O)N2CCCC3(CCN(C(=O)c4ccncc4)CC3)C2)c1"
Response line: inactive

Prompt line: Any idea what this test logged for "CC(C)CN1CCC2(CC1)CCN(S(=O)(=O)c1ccccc1)CC2" ?
Response line: inactive

Prompt line: Each compound tested received a call. Report the one for "COc1ccc2[nH]cc(CCNc3ncnc4ccc(-c5ccccc5C#N)cc34)c2c1" .
Response line: inactive

Prompt line: Recorded test outcome, item "O=C(c1cnccn1)N1CCC2(CCCN(Cc3ccncc3)C2)CC1"
Response line: inactive

Prompt line: // param item: "COc1ncc2nc(-c3ccc(F)cc3)c(=O)n(C[C@H]3CCCO3)c2n1" ; yields the recorded call
Response line: inactive

Prompt line: For this compound, state the assay outcome: "Cc1nc2cnc(Oc3cccc(Cl)c3)nc2n(CCc2ccccc2)c1=O"
Response line: inactive
